Recorded values, source PubChem BioAssay (NCI).

- assay.explanation: NCI Yeast Anticancer Drug Screen. Data for the cln2 rad14 strain (AID 165);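 further: 0% = growth equal to vehicle treated cultures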
- stated.conditions: S. cerevisiae cln2 rad14 strain, at 50.0 µM, stronger effect = higher value
- Protocol: Growth inhibition of yeast strains with defined genetic alterations is measured as a screen for potential anti-cancer activity. Selected strains with alterations in DNA damage repair or cell cycle control were exposed to compounds and growth inhibition was measured relative to vehicle treated controls. The strain used in this assay is cln2 rad14
Compounds without any hit were thinned out: in the full panel of roughly 79,000, 15% have a hit.
test.readout: growth inhibition (%)
Unit % implied. Number only.

Known results for compounds:
Cc1ccc(S(=O)(=O)N/N=C/c2cc([N+](=O)[O-])cc(I)c2O)cc1; -50.4
CC(C)(C)CNCCCBr; -13.3
Cn1c(=O)c2nc3c(=O)n(C)c(=O)n(CC(N)=O)c3nc2n(C)c1=O; 26.2
Cc1cccc[n+]1C1CCc2ccccc2C1=O (stereo not drawn); -23.1
OCc1ccc2ccccc2n1; -1.55

Request: Answer with the recorded growth inhibition of `COc1ccccc1C(=O)N/N=C\c1c[nH]c2ccccc12` only.
Response: -6.25

Request: Give a short answer stating reported growth inhibition for `COC(=O)N(c1ccccc1)c1ccccn1` .
Response: 10.7

Request: Input CC(C)(C)NCC(O)c1ccc(O)c(CO)n1 (stereo not drawn) , output reported growth inhibition.
Response: 9.05

Request: Supply measured growth inhibition of `Cc1ccc(C(=O)c2ccccc2)cc1C[N+](C)(C)C` in your reply.
Response: 12

Request: Identify growth inhibition associated with the compound CCC(C)C1NC(=S)N(c2ccccc2)C1=O (stereo not drawn)
Response: -0.55

Request: For the compound `Oc1ccc(C=Nc2ccccc2)c(O)c1O` , report growth inhibition.
Response: -7.25

Request: For the compound CCCC(=O)OCC1OC(n2cc(F)c(=O)[nH]c2=O)C(F)C1OC(=O)CCC (stereo not drawn) , give its reported growth inhibition.
Response: -13.9

Request: Tell us which growth inhibition value is on record for `CC(=O)c1cc(-c2ccccn2)c(=O)n2ccccc12`
Response: -0.3

----------
- assay.explanation: NCI Yeast Anticancer Drug Screen. Data for the bub3 strain (AID 167)
- stated.conditions: S. cerevisiae bub3 mutant strain, at 50.0 µM
- Protocol: Growth inhibition of yeast strains with defined genetic alterations is measured as a screen for potential anti-cancer activity. Selected strains with alterations in DNA damage repair or cell cycle control were exposed to compounds and growth inhibition was measured relative to vehicle treated controls. The strain used in this assay is bub3
Compounds without any hit were thinned out: in the full panel of roughly 79,000, 15% have a hit. Activity calls are given as the source filed them. Rule as the data show it: active = growth inhibition above about 70%; inactive = the rest.
Assign a class; possible classes are active, inactive

The examples below pair each entry with its known result.
N#CC(C(=O)C(N)=O)c1nc2ccccc2s1 (centres undefined); inactive
CCCCc1cc(/C=N\NC(N)=O)c2ccccc2n1; inactive

Request: Test call for this molecule, please: `O=C1NC2(CCCCC2)C(=O)N1CCN1C(=O)NC2(CCCCC2)C1=O`
Response: inactive

Request: Hey, what did the test say about CC1=CC2(C)Cc3cc(C)cc(C)c3S(=O)(=O)C2C(C(=O)O)=C1 (centres undefined) ?
Response: inactive

Request: Called result for `[O-][N+](=Nc1ccccc1Cl)c1ccccc1Cl`
Response: inactive

Request: Just curious, what result did `C#C[C@@H](CCCC)OC(=O)N[C@H](C)c1ccccc1` get here?
Response: inactive
